# tested_on: Histamine H4 receptor (Homo sapiens, UniProt Q9H3N8)
# Sequence (Q9H3N8 whole entry): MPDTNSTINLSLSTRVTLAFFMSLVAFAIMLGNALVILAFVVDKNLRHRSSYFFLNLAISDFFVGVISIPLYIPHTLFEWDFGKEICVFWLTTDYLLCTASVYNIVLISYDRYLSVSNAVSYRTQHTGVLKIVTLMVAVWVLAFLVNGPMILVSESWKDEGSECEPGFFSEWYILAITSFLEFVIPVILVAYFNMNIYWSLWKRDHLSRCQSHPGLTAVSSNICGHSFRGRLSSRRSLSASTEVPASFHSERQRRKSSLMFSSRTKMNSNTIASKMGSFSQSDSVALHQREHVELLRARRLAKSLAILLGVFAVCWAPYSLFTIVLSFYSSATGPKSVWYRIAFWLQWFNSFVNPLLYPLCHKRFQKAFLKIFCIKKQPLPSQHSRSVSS
# assay_protocol: Activity at human histamine H4 receptor transfected in SK-N-MC cells by cAMP assay
endpoint_label: pEC50
pEC50 here is simply -log10 of the concentration when that concentration is written in mol/L.

Example entries and their recorded answers appear below.
cpd_smiles	tested_on	pEC50
CN1CCN(C2=Nc3cc(Cl)ccc3Oc3ccc(F)cc32)CC1	Histamine H4 receptor (Homo sapiens, UniProt Q9H3N8)	7.09
CN1CCN(C2=Nc3cc(Cl)ccc3Oc3c(F)cccc32)CC1	Histamine H4 receptor (Homo sapiens, UniProt Q9H3N8)	7.83
CN1CCN(C2=Nc3ccccc3Oc3ccccc32)CC1	Histamine H4 receptor (Homo sapiens, UniProt Q9H3N8)	6.52
CN1CCN(C2=Nc3cc(Cl)ccc3Oc3cc(Cl)ccc32)CC1	Histamine H4 receptor (Homo sapiens, UniProt Q9H3N8)	6.99
Cc1ccc2c(c1)Oc1ccccc1C(N1CCN(C)CC1)=N2	Histamine H4 receptor (Homo sapiens, UniProt Q9H3N8)	6.98
CN1CCN(C2=Nc3ccc(Cl)cc3Oc3cc(F)ccc32)CC1	Histamine H4 receptor (Homo sapiens, UniProt Q9H3N8)	7.41
CN1CCN(C2=Nc3cc(Cl)ccc3Oc3ccccc32)CC1	Histamine H4 receptor (Homo sapiens, UniProt Q9H3N8)	7.55
CN1CCN(C2=Nc3ccccc3Oc3ccc(Cl)cc32)CC1	Histamine H4 receptor (Homo sapiens, UniProt Q9H3N8)	6.66

Entry CN1CCN(C2=Nc3ccc(Cl)cc3Oc3c(F)cccc32)CC1 ; assay system Histamine H4 receptor (Homo sapiens, UniProt Q9H3N8); pEC50 recorded at 7.69

Entry CN1CCN(C2=Nc3ccc(Cl)cc3Oc3c(Cl)cccc32)CC1 ; assay system Histamine H4 receptor (Homo sapiens, UniProt Q9H3N8); pEC50 recorded at 7.83

* * *

# tested_on: Histamine H1 receptor (Homo sapiens)
# Sequence (P35367 whole entry): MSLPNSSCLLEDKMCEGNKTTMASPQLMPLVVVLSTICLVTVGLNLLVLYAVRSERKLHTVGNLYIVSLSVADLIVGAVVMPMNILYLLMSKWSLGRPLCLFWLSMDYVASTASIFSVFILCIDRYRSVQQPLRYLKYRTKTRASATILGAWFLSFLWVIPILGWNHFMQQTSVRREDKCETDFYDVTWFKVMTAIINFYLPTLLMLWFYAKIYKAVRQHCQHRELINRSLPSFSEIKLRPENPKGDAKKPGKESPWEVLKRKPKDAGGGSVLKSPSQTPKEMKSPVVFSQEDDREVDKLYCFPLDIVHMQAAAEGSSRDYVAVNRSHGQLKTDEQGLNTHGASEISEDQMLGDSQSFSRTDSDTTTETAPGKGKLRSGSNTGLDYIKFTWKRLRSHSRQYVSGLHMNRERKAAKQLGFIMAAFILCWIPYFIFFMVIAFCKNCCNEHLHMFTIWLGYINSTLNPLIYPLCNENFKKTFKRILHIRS
endpoint_label: pKi
pKi here is simply -log10 of the concentration when that concentration is written in mol/L.

Lookup result for CN1CCN(C2=Nc3ccc(Cl)cc3Oc3ccccc32)CC1 ; measured pKi: 8.11

* * *

# tested_on: Histamine H4 receptor (Homo sapiens, UniProt Q9H3N8)
# assay_protocol: Displacement of [3H]histamine from human histamine H4 receptor transfected in SK-N-MC cells
endpoint_label: pKi
pKi here is simply -log10 of the concentration when that concentration is written in mol/L.

Example entries and their recorded answers appear below.
cpd_smiles	reported
CC(C)N1CCN(C2=Nc3cc(Cl)ccc3Oc3ccccc32)CC1	5.97
CN1CCN(C2=Nc3cc(Cl)ccc3Oc3ccccc32)CC1	7.37
CCN1CCN(C2=Nc3cc(Cl)ccc3Oc3ccccc32)CC1	6.54
CN1CCN(C2=Nc3ccccc3Oc3ccccc32)CC1	6.88
CN1CCN(C2=Nc3ccc(Cl)cc3Oc3c(F)cccc32)CC1	7.51

Lookup result for CN1CCN(C2=Nc3ccc(Cl)cc3Oc3cc(F)ccc32)CC1 ; measured pKi: 7.41

Lookup result for CN1CCN(C2=Nc3cc(Cl)ccc3Oc3c(F)cccc32)CC1 ; measured pKi: 7.56

Lookup result for Clc1ccc2c(c1)N=C(N1CCNCC1)c1ccccc1O2 ; measured pKi: 6.49

Lookup result for CN1CCN(C2=Nc3cc(Cl)ccc3Oc3ccc(F)cc32)CC1 ; measured pKi: 6.72

Lookup result for CN1CCN(C2=Nc3ccccc3Cc3ccccc32)CC1 ; measured pKi: 5.32

Lookup result for CN1CCN(C2=Nc3cc(Cl)ccc3Sc3ccccc32)CC1 ; measured pKi: 5.69

Lookup result for CN1CCN(C2=Nc3ccccc3Oc3ccc(Cl)cc32)CC1 ; measured pKi: 5.34

Lookup result for CN1CCN(C2=Nc3cc(Cl)ccc3Oc3cc(Cl)ccc32)CC1 ; measured pKi: 6.51

Lookup result for Cc1ccc2c(c1)Oc1ccccc1C(N1CCN(C)CC1)=N2 ; measured pKi: 7.10

Lookup result for CN1CCN(C2=Nc3cc(Cl)ccc3N(C)c3ccccc32)CC1 ; measured pKi: 5.85

Lookup result for CN1CCN(C2=Nc3ccc(Cl)cc3Oc3c(Cl)cccc32)CC1 ; measured pKi: 7.34

Lookup result for OCCN1CCN(C2=Nc3cc(Cl)ccc3Nc3ccccc32)CC1 ; measured pKi: 5.33
